- System: VRK2;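 further: KINOMEscan kinase panel screen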
- COND: concentration: 1 μM, replicates: in singlicate; n = 1

COMPOUND	ASSAYED SYSTEM	%Inh
COc1ccc(Nc2nccc(NCCNC(=O)Nc3cc(C)ccc3C)n2)cc1 [GSK1379899]	VRK2	0%
Cc1ccc(NC(=O)Nc2ccc(Cl)cc2)cc1-c1ccc(C(=O)Nc2ccncc2)cc1 [GSK1398472]	VRK2	0%
Nc1nccc(-c2c(-c3ccc(F)cc3)ncn2C2CCN(Cc3ccccc3)CC2)n1 [SB-219980]	VRK2	0%
COc1ccc(Nc2nccc(N3CCC(NC(=O)c4cc5ccccc5s4)C3)n2)cc1 (stereo not drawn) [GSK1379738]	VRK2	0%
O=C(Nc1n[nH]c2nc(-c3ccco3)c(Br)cc12)C1CCN(Cc2ccccc2)C1.O=C(O)[C@H](O)[C@@H](O)C(=O)O (stereo not drawn) [SB-742034]	VRK2	0%
COc1ccc(-c2coc3ccc(-c4nnc(C)o4)cc23)cc1	VRK2	0%
CNc1cc(-c2ccc3c(N)n[nH]c3c2)nc(N)n1 [GSK2224810]	VRK2	0%
CCn1c(-c2ccccc2)nc2cnccc21 [SB-733416]	VRK2	34%
Cc1ccc(NC(=O)c2ccc(Cl)cc2)cc1-c1ccc(C(=O)Nc2ccncc2)cc1 [GSK1398467]	VRK2	27%
Cn1cncc1C(=O)NC1CCN(c2ccnc(Nc3ccc(F)cc3)n2)C1 (stereo not drawn) [GSK1379717]	VRK2	0%
CNC(=O)c1ccc(C)c(-n2c(C)cc(OCc3ccc(F)cc3F)c(Br)c2=O)c1	VRK2	0%
Cc1c(Cn2c3ccccc3n3c(=O)cc(N4CCOCC4)nc23)cccc1C(F)(F)F [GSK2306394]	VRK2	0%
CCc1ccc(-c2ccc3c(c2)-c2n[nH]cc2S(=O)(=O)N3C)cc1	VRK2	0%
CC(=O)c1c(C)c2cnc(Nc3ccc(N4CCNCC4)cn3)nc2n(C2CCCC2)c1=O	VRK2	0%
COc1ccc(Nc2nccc(N3CCC(NC(=O)C(C)c4ccc(Cl)cc4)CC3)n2)cc1 (stereo not drawn) [GSK1379812]	VRK2	0%
Cc1nccc(-c2c(-c3ccc(F)cc3)ncn2CCCN2CCOCC2)n1.Cl [SB-282975]	VRK2	0%
Cc1cccc2c(-c3ccncn3)c(-c3ccc(F)cc3)nn12 [GW515532]	VRK2	0%
CS(=O)(=O)CCNCc1nc(-c2ccc3ncnc(Nc4ccc(OCc5ccccc5)c(Cl)c4)c3c2)cs1.Cl [GW582764]	VRK2	50%

Numbers sourced from paper PMC5540273.
